# test: Comparative tests for stability of the crystalline form E and other crystalline forms (storage, total impurity and content)
# Type: physicochemical
# condition.info: Freezing −20° C., month 0
readout.type: Total impurity (%)

Some solved cases for reference:
>>> measured_value("C[C@@H](O)[C@H]1C(=O)N2C(C(=O)[O-])=C(S[C@@H]3CN[C@H](C(=O)Nc4cccc(C(=O)O)c4)C3)[C@H](C)[C@H]12.[Na+] [Crystalline form B, ertapenem sodium]")
0.8
>>> measured_value("C[C@@H](O)[C@H]1C(=O)N2C(C(=O)[O-])=C(S[C@@H]3CN[C@H](C(=O)Nc4cccc(C(=O)O)c4)C3)[C@H](C)[C@H]12.[Na+] (relative stereo) [Crystalline form E]")
0.8
>>> measured_value("C[C@@H](O)[C@H]1C(=O)N2C(C(=O)[O-])=C(S[C@@H]3CN[C@H](C(=O)Nc4cccc(C(=O)O)c4)C3)[C@H](C)[C@H]12.[Na+] [Crystalline form D, ertapenem sodium]")
1.0

[a] C[C@@H](O)[C@H]1C(=O)N2C(C(=O)[O-])=C(S[C@@H]3CN[C@H](C(=O)Nc4cccc(C(=O)O)c4)C3)[C@H](C)[C@H]12.[Na+] [Crystalline form C, ertapenem sodium]
[b] C[C@@H](O)[C@H]1C(=O)N2C(C(=O)[O-])=C(S[C@@H]3CN[C@H](C(=O)Nc4cccc(C(=O)O)c4)C3)[C@H](C)[C@H]12.[Na+] [Amorphous, ertapenem sodium]
# min-compare on Total impurity between a and b Write the label of whichever entry you select.
a
